Documented growth across a set of compounds
- Tested on: E. coli TESEC Mtb Asd
- PROCEDURE_TEXT: growth (OD600 after 10 h); higher = more growth (less inhibition)
- EXPERIMENTAL_CONTEXT: arabinose induction (level): High; compound 0.1 mM; raw OD600 reference: median of DMSO wells 0.331, cell-free background 0.041
Where a name gives a salt, the structure may show the parent alone.

- COMPOUND: "COC1=C(OC)C(=O)C(CCCCCCCCCCO)=C(C)C1=O [Idebenone]"
  growth: 0.0516
- COMPOUND: "CO[C@H]1/C=C/O[C@@]2(C)Oc3c(C)c(O)c4c(O)c(c(/C=N/N5CCN(C)CC5)c(O)c4c3C2=O)NC(=O)/C(C)=C\\C=C\\[C@H](C)[C@H](O)[C@@H](C)[C@@H](O)[C@@H](C)[C@H](OC(C)=O)[C@@H]1C [Rifampicin]"
  growth: 0.0643
- COMPOUND: "CCn1cc(C(=O)O)c(=O)c2cc(F)c(N3CCNCC3)cc21 [Norfloxacin]"
  growth: 0.0546
- COMPOUND: "COc1ccc([C@@H]2Sc3ccccc3N(CCN(C)C)C(=O)[C@@H]2OC(C)=O)cc1 [Diltiazem hydrochloride]"
  growth: 0.248
- COMPOUND: "Clc1ccc2c(c1)C(N1CCNCC1)=Nc1ccccc1O2 [Amoxapine]"
  growth: 0.178
- COMPOUND: "C#C[C@]1(O)CC[C@H]2[C@@H]3CCC4=C(CCC(=O)C4)[C@H]3CC[C@@]21C [Norethynodrel]"
  growth: 0.128
- COMPOUND: "CN(C)C(=O)C(CCN1CCC(O)(c2ccc(Cl)cc2)CC1)(c1ccccc1)c1ccccc1 [Loperamide hydrochloride]"
  growth: 0.0486
- COMPOUND: "NS(=O)(=O)c1cc2c(cc1Cl)N=CNS2(=O)=O [Chlorothiazide]"
  growth: 0.433

----------
Listed here are molecules together with their documented growth.
- System: E. coli TESEC Mtb DapB
- PROCEDURE_TEXT: growth (OD600 after 10 h); higher = more growth (less inhibition)
- EXPERIMENTAL_CONTEXT: arabinose induction (level): High; compound 0.1 mM; raw OD600 reference: median of DMSO wells […], cell-free background 0.041
Where a name gives a salt, the structure may show the parent alone.

- MOLECULE: "C[C@@H]1[C@H](O)[C@@H](C)/C=C/C=C/C=C/C=C/C=C/C=C/C=C/[C@H](O[C@@H]2O[C@H](C)[C@@H](O)[C@H](N)[C@@H]2O)C[C@@H]2O[C@](O)(C[C@@H](O)C[C@@H](O)[C@H](O)CC[C@@H](O)C[C@@H](O)CC(=O)O[C@H]1C)C[C@H](O)[C@H]2C(=O)O [Amphotericin B]"
  growth: 0.208
- MOLECULE: "CC(C)NCC(O)c1ccc(NS(C)(=O)=O)cc1 (stereo not given) [Sotalol hydrochloride]"
  growth: 0.181
- MOLECULE: "COc1cc(C(=O)N2CCOCC2)cc(OC)c1OC [Trimetozine]"
  growth: 0.192
- MOLECULE: "CC1(C)S[C@@H]2[C@H](NC(=O)[C@H](C(=O)O)c3ccsc3)C(=O)N2[C@H]1C(=O)O [Ticarcillin sodium]"
  growth: 0.178
- MOLECULE: "CCOC(=O)O[C@]1(C(=O)OCCl)CC[C@H]2[C@@H]3CCC4=CC(=O)C=C[C@]4(C)[C@H]3[C@@H](O)C[C@@]21C [Loteprednol etabonate]"
  growth: 0.174

Values compiled from the supplement of paper PMC9262897.
